Kindly supply the reported cAMP release, % activity, 1 nM values for the records listed here.
# TESTED TARGET: human GLP-1 receptor (human, UniProt P43220 24-463)
# Sequence (P43220 24-463): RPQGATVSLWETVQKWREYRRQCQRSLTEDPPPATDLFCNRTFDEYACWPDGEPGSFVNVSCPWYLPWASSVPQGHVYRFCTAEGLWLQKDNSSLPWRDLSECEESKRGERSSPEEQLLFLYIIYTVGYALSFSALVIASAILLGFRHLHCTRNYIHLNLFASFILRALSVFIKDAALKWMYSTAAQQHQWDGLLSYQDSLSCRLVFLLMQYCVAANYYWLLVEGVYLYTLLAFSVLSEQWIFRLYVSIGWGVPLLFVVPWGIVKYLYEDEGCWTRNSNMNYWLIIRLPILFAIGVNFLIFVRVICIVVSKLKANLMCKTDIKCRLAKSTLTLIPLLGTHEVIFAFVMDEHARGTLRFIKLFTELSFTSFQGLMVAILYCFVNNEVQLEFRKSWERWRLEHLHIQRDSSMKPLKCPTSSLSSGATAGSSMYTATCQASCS
# PROTOCOL NOTES: cell-based or functional assay
Starred links: 1 amine or outer side, 2 acyl side, 3 side chain; linkers in the order of their positions; H or OH if unused. Non-standard residues stand in square brackets, D forms with d. No end group written: not given here. NMe2F‑APPA = N-methyl-2-amino-5-(2-fluorophenyl)pentanoic acid, CN([C@@H](CCCc1ccccc1F)C(=O)[*:2])[*:1]; Bip(2'-Et-4'-OMe) = CCc1cc(OC)ccc1-c1ccc(C[C@H](N)C(=O)O)cc1; 2F‑APPA = 2-amino-5-(2-fluorophenyl)pentanoic acid; αMePhe(2-F) = C[C@](N)(Cc1ccccc1F)C(=O)O; NMeBip(OMe) = N-methylated Bip(OMe); hhPhe = N[C@@H](CCCc1ccccc1)C(=O)O; NMeD = CN[C@@H](CC(=O)O)C(=O)O; aThr = C[C@H](O)[C@H](N)C(=O)O; CNB = not defined here; Aib = CC(C)(N)C(=O)O
One number for each entry, in %.

Reference set (3 entries):
{"BINDER": "Ac-H[Aib]QG[aThr][αMePhe(2-F)][aThr]SD[Bip(2'-Et-4'-OMe)][hhPhe] [Seq. ID. No. 101: CH3CO-H-Aib-QG-T(allo)-(α-Me-2F-Phe)-T(allo)-SD-Bip(OMe)-(APPA)]", "cAMP release, % activity, 1 nM [%]": 41}
{"BINDER": "H[Aib][CNB]G[aThr][αMePhe(2-F)][aThr]SD[Bip(2'-Et-4'-OMe)][2F‑APPA] (reading uncertain; also: thioamide bond between residues 10 and 11) [Seq. ID. No. 168: H-Aib-(CNB)-G-T(allo)-(α-Me-2F-Phe)-T(allo)-SD-Bip(OMe)-(C═S)-(2F-APPA)]", "cAMP release, % activity, 1 nM [%]": 96}
{"BINDER": "H[Aib][CNB]G[aThr][αMePhe(2-F)][aThr]S[NMeD][NMeBip(OMe)][NMe2F‑APPA] (reading uncertain)", "cAMP release, % activity, 1 nM [%]": 86}

Alright, here's another binder for you.
Consider the binder shown here: H[Aib][CNB]G[aThr][αMePhe(2-F)][aThr]SD[Bip(2'-Et-4'-OMe)][2F‑APPA] (reading uncertain) [Seq. ID. No. 116: H-Aib-(CNB)-G-T(allo)-(α-Me-2F-Phe)-T(allo)-SD-Bip(OMe)-(2F-APPA)] What is its recorded cAMP release, % activity, 1 nM?
55
